test system: MES-induced seizures; assay: Maximal electroshock seizure (MES) test; format: in vivo, mice; settings: Mus musculus, ip, mice; 95% confidence interval in brackets; read-out: ED50 MES
Task for the reader: assign each of the following compounds its reported log10 ED50.
Remember, log10 of ED50, in mg/kg.

QUERY: What does the record list as log10 ED50 for CCCC(CCC)C(=O)O [Valproate, reference compound] ?
RESULT: 2.42

QUERY: Could you tell me which log10 ED50 is on file for NC(=O)N1c2ccccc2C=Cc2ccccc21 [Carbamazepine, reference compound] ?
RESULT: 0.99

QUERY: Fill blank: measured log10 ED50 of the compound `c1ccc(COc2ccc(-c3ccnc4ncnn34)cc2)cc1` is ____.
RESULT: 1.58

QUERY: Value lookup for log10 ED50; key = `CCCCCCOc1ccc(-c2ccnc3ncnn23)cc1`
RESULT: 1.20

QUERY: May I ask what log10 ED50 has been recorded for `CCCCCOc1ccc(-c2ccnc3ncnn23)cc1` ?
RESULT: 1.40
